Hello, the source for this data is ChEMBL document CHEMBL5108039, in case you need it.

Experiment: Cytotoxicity against human BEAS-2B cells assessed as cell growth inhibition
Format: toxicity, cell-based
readout_name: IC50

compound: COc1c(O)c(CN2CCN(CC(=O)Nc3nc4ccc(Cl)cc4s3)CC2)c2c(c1O)C1O[C@H](CO)[C@@H](O)[C@H](O)C1OC2=O (stereo partly drawn)
readout_name: IC50
val: 44.2 µM
--
compound: COc1ccc(S(=O)(=O)N2CCN(Cc3c(O)c(OC)c(O)c4c3C(=O)OC3C4O[C@H](CO)[C@@H](O)[C@@H]3O)CC2)cc1 (stereo partly drawn)
readout_name: IC50
val: > 100 µM
--
compound: COc1ccc(S(=O)(=O)N2CCN(Cc3c(O)c(OC)c(O)c4c3C(=O)OC3C4O[C@H](CO)[C@@H](O)[C@@H]3O)CC2)cc1OC (stereo partly drawn)
readout_name: IC50
val: > 100 µM
--
compound: COc1c(O)c(CN2CCN(S(=O)(=O)c3ccc(F)cc3Cl)CC2)c2c(c1O)C1O[C@H](CO)[C@@H](O)[C@H](O)C1OC2=O (stereo partly drawn)
readout_name: IC50
val: > 100 µM

May I ask what IC50 has been recorded for COc1c(O)c(CN2CCN(CC(=O)Nc3nc(-c4ccc(Cl)cc4)cs3)CC2)c2c(c1O)C1O[C@H](CO)[C@@H](O)[C@H](O)C1OC2=O (stereo partly drawn) ?
> 100 µM

Same thing, different compound: COc1c(O)c(CN2CCN(S(=O)(=O)c3cccs3)CC2)c2c(c1O)C1O[C@H](CO)[C@@H](O)[C@H](O)C1OC2=O (stereo partly drawn)
> 100 µM

Also COc1c(O)c(CN2CCN(CC(=O)Nc3nc4c(Cl)cccc4s3)CC2)c2c(c1O)C1O[C@H](CO)[C@@H](O)[C@H](O)C1OC2=O (stereo partly drawn) ?
21.7 µM

Could you do the same for COc1c(O)c(CN2CCN(S(=O)(=O)c3ccc(I)cc3)CC2)c2c(c1O)C1O[C@H](CO)[C@@H](O)[C@H](O)C1OC2=O (stereo partly drawn) , please?
> 100 µM
